target: feline FcRn (FCN-F82W3, Acrobiosystems) (feline); assay: SPR Carterra, IgG coupled, pH 6.0
experimental.readout: pKd
# reply with the number alone; pKd is -log10 of concentration in mol/L

Record anti-NGF feline IgG1a, Fc variant S434Y (antibody, part only; not given: Anti-NGF variable domains, not shown: another chain or arm of the molecule; small tags and cut ends) Fc: PPEMLGGPSIFIFPPKPKDTLSISRTPEVTCLVVDLGPDDSDVQITWFVDNTQVYTAKTSPREEQFNSTYRVVSVLPILHQDWLKGKEFKCKVNSKSLPSPIERTISKAKGQPHEPQVYVLPPAQEELSRNKVSVTCLIKSFHPPDIAVEWEITGQPEPENNYRTTPPQLDSDGTYFVYSKLSVDRSHWQRGNTYTCSVSHEALHYHHTQKSLTQSPGK , field pKd: 8.28

binder anti-NGF feline IgG1a, Fc variant R334D, R301L (antibody, part only; not given: anti-NGF variable domains, light chain, not shown: another chain or arm of the molecule; small tags and cut ends) Fc: PPEMLGGPSIFIFPPKPKDTLSISRTPEVTCLVVDLGPDDSDVQITWFVDNTQVYTAKTSPREEQFNSTYLVVSVLPILHQDWLKGKEFKCKVNSKSLPSPIEDTISKAKGQPHEPQVYVLPPAQEELSRNKVSVTCLIKSFHPPDIAVEWEITGQPEPENNYRTTPPQLDSDGTYFVYSKLSVDRSHWQRGNTYTCSVSHEALHSHHTQKSLTQSPGK , pKd observed: 7.04

For this binder ( anti-NGF feline IgG1a, Fc variant S428Y, Q311V (antibody, part only; not given: Anti-NGF variable domains, not shown: another chain or arm of the molecule; small tags and cut ends) Fc: PPEMLGGPSIFIFPPKPKDTLSISRTPEVTCLVVDLGPDDSDVQITWFVDNTQVYTAKTSPREEQFNSTYRVVSVLPILHVDWLKGKEFKCKVNSKSLPSPIERTISKAKGQPHEPQVYVLPPAQEELSRNKVSVTCLIKSFHPPDIAVEWEITGQPEPENNYRTTPPQLDSDGTYFVYSKLSVDRSHWQRGNTYTCSVYHEALHSHHTQKSLTQSPGK ), measured pKd is 7.96

Reported pKd ( anti-NGF feline IgG1a, Fc variant S434Y, S254R (antibody, part only; not given: anti-NGF variable domains, light chain, not shown: another chain or arm of the molecule; small tags and cut ends) Fc: PPEMLGGPSIFIFPPKPKDTLSIRRTPEVTCLVVDLGPDDSDVQITWFVDNTQVYTAKTSPREEQFNSTYRVVSVLPILHQDWLKGKEFKCKVNSKSLPSPIERTISKAKGQPHEPQVYVLPPAQEELSRNKVSVTCLIKSFHPPDIAVEWEITGQPEPENNYRTTPPQLDSDGTYFVYSKLSVDRSHWQRGNTYTCSVSHEALHYHHTQKSLTQSPGK ) = 8.68
